Experiment: Displacement of thioflavin T from insulin amyloid fibrils by thioflavin-T fluorescent dye assay
Collected pIC50 values appear next to each entry.
Friendly reminder that pIC50 comes from taking -log10 of the concentration in mol/L.

{"smiles.entry": "CCCCCCC[n+]1c(/C=C/c2ccc(N(CCCC)CCCC)cc2)sc2ccccc21", "pIC50": 7.05}
{"smiles.entry": "CCCCCCC[n+]1c(/C=C/c2ccc(-n3cccc3)cc2)sc2ccccc21", "pIC50": 7.38}
{"smiles.entry": "CCCC[n+]1c(/C=C/c2ccc(N(C)C)cc2)sc2ccccc21", "pIC50": 7.57}
{"smiles.entry": "CN(C)c1ccc(/C=C/c2sc3ccccc3[n+]2Cc2cccc(Oc3ccccc3)c2)cc1", "pIC50": 6.74}
{"smiles.entry": "CN(C)c1ccc(/C=C/c2sc3ccccc3[n+]2CCCCCOc2ccccc2)cc1", "pIC50": 7.10}
{"smiles.entry": "CCCCCCC[n+]1c(/C=C/c2ccc(N(C)C)cc2)sc2ccccc21", "pIC50": 7.08}

Given item CN(C)c1ccc(/C=C/c2sc3ccccc3[n+]2C/C=C/c2ccccc2)cc1 , the value recorded as its pIC50 is 7.10

Given item COc1ccc2c(c1)sc(/C=C/c1ccc(N(C)C)c3ccccc13)[n+]2C , the value recorded as its pIC50 is 7.59

Given item CN(C)c1ccc(/C=C/c2sc3ccccc3[n+]2CCCOCc2ccccc2)cc1 , the value recorded as its pIC50 is 7.28

Given item CCCCCCC[n+]1c(/C=C/c2ccc(N(CC)CC)cc2)sc2ccccc21 , the value recorded as its pIC50 is 6.92

Given item CN(C)c1ccc(/N=N/c2nc3ccccc3s2)cc1 , the value recorded as its pIC50 is 5.92

Given item CN(C)c1ccc(/C=C/c2sc3cc([N+](=O)[O-])ccc3[n+]2C)cc1 , the value recorded as its pIC50 is 7.92

Given item CN(C)c1ccc(/C=C/c2sc3ccccc3[n+]2Cc2ccccc2-c2ccccc2)cc1 , the value recorded as its pIC50 is 7.10

###

Collected IC50 values appear next to each entry.
Test: Displacement of thioflavin T from insulin amyloid fibrils by thioflavin-T fluorescent dye assay

Given item CN(C)c1ccc(/C=C/c2sc3ccccc3[n+]2Cc2ccc(F)cc2)cc1 , the value recorded as its IC50 is 42 nM

Given item CCCCCCC[n+]1c(/C=C/c2ccc(N(C)C)c3ccccc23)sc2ccccc21 , the value recorded as its IC50 is 40 nM

Given item Cc1ccc2c(c1)sc(/C=C/c1ccc(N(C)C)cc1)[n+]2C , the value recorded as its IC50 is 6 nM

Given item COc1ccc2c(c1)sc(/N=N/c1ccc(N(C)C)cc1)[n+]2C , the value recorded as its IC50 is 10 nM

Given item CN(C)c1ccc(/C=C/c2sc3ccc(Cc4ccccc4)c(Cc4ccccc4)c3[n+]2C)cc1 , the value recorded as its IC50 is 41 nM

###

Collected IC50 values appear next to each entry.
Test: Displacement of thioflavin T from insulin amyloid fibrils by thioflavin-T fluorescent dye assay
Could you write the number and then its unit?

Observe how each entry below is paired with its result.
{"smiles.entry": "CCCCCCC[n+]1c(/C=C/c2ccc(N(C)C)cc2)sc2cc(OC)ccc21", "IC50": "40 nM"}
{"smiles.entry": "CC[n+]1c(/C=C/c2ccc(N(C)C)cc2)sc2ccccc21", "IC50": "6 nM"}
{"smiles.entry": "COc1ccc2nc(/N=N/c3ccc(N(C)C)c4ccccc34)sc2c1", "IC50": "340 nM"}
{"smiles.entry": "COc1ccc2nc(/N=N/c3ccc(N(C)C)cc3)sc2c1", "IC50": "700 nM"}

Please look at the following molecule next.
Given item CN(C)c1ccc(/C=C/c2sc3ccccc3[n+]2Cc2ccc3ccccc3c2)cc1 , the value recorded as its IC50 is 13 nM

###

Test: Displacement of thioflavin T from insulin amyloid fibrils by thioflavin-T fluorescent dye assay
Collected IC50 values appear next to each entry.
Report the figure in µM without appending any unit label.

Observe how each entry below is paired with its result.
{"smiles.entry": "CN(C)c1ccc(/C=C/c2sc3c(Cc4ccccc4)c(Cc4ccccc4)ccc3[n+]2C)cc1", "IC50, µM": 0.041}
{"smiles.entry": "CN(C)c1ccc(/C=C/c2sc3ccccc3[n+]2CCCC(c2ccccc2)c2ccccc2)cc1", "IC50, µM": 0.21}
{"smiles.entry": "Cc1ccc2c(c1)sc(/C=C/c1ccc(N(C)C)cc1)[n+]2Cc1ccccc1", "IC50, µM": 0.05}

Given item CN(C)c1ccc(/N=N/c2sc3ccccc3[n+]2C)cc1 , the value recorded as its IC50 is 0.06

Given item CN(C)c1ccc(/C=C/c2sc3ccc(Cl)cc3[n+]2C)cc1 , the value recorded as its IC50 is 0.0052

###

Experiment: Displacement of thioflavin T from insulin amyloid fibrils by thioflavin-T fluorescent dye assay
pIC50: −log10 of the molar value.
Classification field: enter condition met for pIC50 values not below 7, condition not met for values below it.

Check out these entries, answers already filled in.
{"smiles.entry": "CN(C)c1ccc(/C=C/c2sc3ccccc3[n+]2Cc2ccc(-c3ccccc3)cc2)cc1", "group": "condition met"}
{"smiles.entry": "CN(C)c1ccc(/N=N/c2nc3ccc(Cl)cc3s2)cc1", "group": "condition not met"}
{"smiles.entry": "Cc1ccc2sc(/C=C/c3ccc(N(C)C)cc3)[n+](C)c2c1", "group": "condition met"}
{"smiles.entry": "CN(C)c1ccc(/C=C/c2sc3ccccc3[n+]2Cc2ccccc2)cc1", "group": "condition met"}

As a next step, examine the molecule that follows.
Please indicate if the recorded pIC50 for CN(C)c1ccc(/C=C/c2sc3ccc(F)cc3[n+]2Cc2ccccc2)cc1 meets or exceeds 7. condition met
